Tested on: MS2 coat protein
EXPERIMENT SUMMARY: apparent KD of MS2 coat protein; designed switch direction (-1 OFF switch, 1 ON switch): -1; higher = weaker reporter binding
CONDITION INFO: input ligand: none
REPORTED METRIC: apparent KD of MS2 coat protein (nM)
Report the figure in nM without appending any unit label.

Prompt line: State, in one line, measured apparent KD of MS2 coat protein of AAUUAGCAAGCGAGGUCCCACAUGAGGAUCACCCAUGUGCUCGUCUUAUAAGGUACUGUGACGAGAGUCACGGUACC [Mat - Sensor, turn-off var - Eli Mod - D35] (Eterna round: R97, puzzle: Sensor, turn-off variant 1)
Response line: 15.2

Prompt line: State, in one line, measured apparent KD of MS2 coat protein of ACAUGAGGAUCACCCAUGUAAUGAAGGGUACUAUACUAAACGUAGGAUAUCGAUGUAAGAUUGAACGAGAAGGACGAUUGCCUU [JR_ExcNG3_Sub050] (Eterna round: R96, puzzle: Exclusion NG 3)
Response line: 72.8

Prompt line: State, in one line, measured apparent KD of MS2 coat protein of GUACUGAAGCUUUGCUUUAGUCGUACAUGAGGAUCACCCAUGUAGGAUAUGGUAAGCAUAGCUUACUAGAAGGAUAGAGUGAUC [Mat - Exclusion NG 3 - Mod of JL - D65] (Eterna round: R96, puzzle: Exclusion NG 3)
Response line: 97.8

Prompt line: State, in one line, measured apparent KD of MS2 coat protein of ACAUGAGGAUCACCCAUGUAAUCAUAAUGGCUGAUGUAGAGUCAGGAUAUGUGUGGCUAACAAUCGCAGAAGGGACAAGACUGG [Deportation 32 - Jieux - Exclusion NG 3] (Eterna round: R96, puzzle: Exclusion NG 3)
Response line: 29.5

Prompt line: State, in one line, measured apparent KD of MS2 coat protein of AUAUAGUCAGGAUAUCGAAGUGUGUGUUGGUUUGUAAUUUACGAGAAGGGACAUGAGGAUCACCCAUGUAGGAA [JR_Exclusion4)Sub002] (Eterna round: R96, puzzle: Exclusion 4)
Response line: 44.1

* * *

System: MS2 coat protein
EXPERIMENT SUMMARY: apparent KD of MS2 coat protein; designed switch direction (-1 OFF switch, 1 ON switch): 1; higher = weaker reporter binding
CONDITION INFO: input ligand: none
Provide the recorded apparent KD of MS2 coat protein for the entries that follow.
Report the figure in nM without appending any unit label.

Prompt line: State, in one line, measured apparent KD of MS2 coat protein of AAAAGAAACGCAGGAUAUGCACAUGAGGAUCACCCAUGUCCCACAGGCUCGACCGAGCCCGUGAAGCAGAAGGGUGUAAGAAAA [Redibere] (Eterna round: R96, puzzle: Same State NG 2)
Response line: 3390

Prompt line: State, in one line, measured apparent KD of MS2 coat protein of AUACUCAUGUAAGGAUAUGCAGCCGUUUCGGCUGCAGAAGGUACUAUAAUACAUGAGGAUCACCCAUGUCUCUAUUAUUUAGUU [JL SSNG1 1.46] (Eterna round: R96, puzzle: Same State NG 1)
Response line: 55.1

Prompt line: State, in one line, measured apparent KD of MS2 coat protein of ACAUGAGGAUCACCCAUGUAACACCUGAAAAUAAAACGAACACAGGAUAUCCCAGCAUGACGCCGGGAGAAGGGUGAUCGAAGA [Quorer] (Eterna round: R96, puzzle: Same State NG 3)
Response line: 52.8

Prompt line: State, in one line, measured apparent KD of MS2 coat protein of AGCUAUUAAUCAGGAUAUAGGGACAUGAGGAUCACCCAUGUGUACAUGAGUAAAUGUGAUCACGUCUAGAAGGGAUUACUAACA [SameState NG2 #38] (Eterna round: R96, puzzle: Same State NG 2)
Response line: 133

Prompt line: State, in one line, measured apparent KD of MS2 coat protein of GCAAUAAGGUGAGGAUAUGCAGAGGAUCACCCUGUAGAAGGCAUCAGGUGAGGAUAUGCAGAGGAUCACCCUGUAGAAGGCAUC [pwkr ssNG DX.15] (Eterna round: R96, puzzle: Same State NG 1)
Response line: 175

Prompt line: State, in one line, measured apparent KD of MS2 coat protein of GCGAGCGUACUUGCUACAUGAGGAUCACCCAUGUUCGUUGGACAGGAUAUGGUACCGUUUCGGUACCAGAAGGGUUCAUCAUGA [JL SSNG3 3.76] (Eterna round: R96, puzzle: Same State NG 3)
Response line: 241

* * *

Tested on: MS2 coat protein
EXPERIMENT SUMMARY: apparent KD of MS2 coat protein, switch OFF state (with FMN for OFF switches, without FMN for ON switches); designed switch direction (-1 OFF switch, 1 ON switch): -1; higher = weaker reporter binding
CONDITION INFO: FMN input: 0 or 200 uM; Eterna round: R93 (includes R88 designs)
Provide the recorded apparent KD of MS2 coat protein for the entries that follow.
Report the figure in µM without appending any unit label.

Prompt line: State, in one line, measured apparent KD of MS2 coat protein of AAAGAUACAGGAUAUACAUGAGGAUCACCCAUGUGAGACCAAAAAUGGGAAAAAGAAAGUAGAAGGGUAUAAAA [Ex 3 May 36]
Response line: 0.0917

Prompt line: State, in one line, measured apparent KD of MS2 coat protein of AAGAAGUAAGGAUAUCGAAGACUGUCGAAAAGACAGUCGAACGAGAAGGUACAUGAGGAUCACCCAUGUGAGAA [Opal 24]
Response line: 0.041

Prompt line: State, in one line, measured apparent KD of MS2 coat protein of AAAAAGGGAGGAUAUACGAAACAGGGAAACCUGAAAAAGGGACAUGAGGAUCACCCAUGUAGAAGGCCCAAGAA [Clint Eastwood 64% 5]
Response line: 0.268

Prompt line: State, in one line, measured apparent KD of MS2 coat protein of AAAAAAUGAGGAUAUACAUGAGGAUCACCCAUGUAAAAGGUCAGGGUGGCGGAGGACGGUAGAAGGCAUAAAAA [Excls3-X]
Response line: 0.0182

Prompt line: State, in one line, measured apparent KD of MS2 coat protein of AAGAACGGAGGAUAUACUAAAGAAAUGAAAAGAAAUAAAGAACAUGAGGAUCACCCAUGUAGAAGGCCGAAGAA [Sehebre]
Response line: 0.0237

Prompt line: State, in one line, measured apparent KD of MS2 coat protein of AAAAAACAUGAGGAUCACCCAUGUAAGGAUAUGCUCGGGCGAAAAAGCAAAAAAAAGAGCAGAAGGUACAAAAA [66%, Wbt, 42]
Response line: 0.0387

Prompt line: State, in one line, measured apparent KD of MS2 coat protein of GGAAAACAUGAGGAUCACCCAUGUGAGGAUAUCCAGGAUAUAGAAGGAGGAUAUAGAAGGAGAAGGCACGAAGG [salish99-ex1-18]
Response line: 0.0331

Prompt line: State, in one line, measured apparent KD of MS2 coat protein of UAAAAGCGAGGAUAUACAUGAGGAUCACCCAUGUGAAAGAAAAAUAAAAAAAAAAAAAGUAGAAGGCGCUAAAA [Ex 3 #2]
Response line: 0.0657

Prompt line: State, in one line, measured apparent KD of MS2 coat protein of AAAAAGUGAGGAUAUACAUGAGGAUCACCCAUGUGUAUAAAAAAUUACACAAAAGAAAGUAGAAGGCACUAAAG [Mat - Exclusion 3 - Mayanna mod - D112]
Response line: 0.0308

Prompt line: State, in one line, measured apparent KD of MS2 coat protein of UUCGCACAUGAGGAUCACCCAUGUCAGGAUAUCGUGGCGGGAAAAACCGGGAAACGCACGAGAAGGGACACACA [EX1 Malc#18 Mod 15 - Jieux - Exclusion 1]
Response line: 0.0515

Prompt line: State, in one line, measured apparent KD of MS2 coat protein of AACAAGACAGGAUAUACAUGAGGAUCACCCAUGUGAGAAUAAAGUGGCGUAACACAAAGUAGAAGGGUCAUGGA [Ruby 6]
Response line: 0.0555

Prompt line: State, in one line, measured apparent KD of MS2 coat protein of UAAAAGUGAGGAUAUUCGGAUAGGAAAACGAAAACCUAUCCGAAGAAGGCACAUGAGGAUCACCCAUGUAAAAU [Mat - Exaclusion 4 - Eli mod - D37]
Response line: 0.048

Prompt line: State, in one line, measured apparent KD of MS2 coat protein of AAGACUACAGGAUAUACAUGAGGAUCACCCAUGUAACUGACGGAUAGAUGACGGAGAAGUAGAAGGGUAGUCCA [Ruby 39]
Response line: 0.0469

Prompt line: State, in one line, measured apparent KD of MS2 coat protein of AAGCCACAUGAGGAUCACCCAUGUAAGGAUAUGAACGAAAUAAAAUAAAAAUAAAAGUUCAGAAGGUACAAAAA [Mat - Exclusion 1 - Eli mod - D23]
Response line: 0.0219

Prompt line: State, in one line, measured apparent KD of MS2 coat protein of AAGAAGUCAGGAUAUGCUAAAGAAAUAAAAAUAAAUAAAGAACAUGAGGAUCACCCAUGUAGAAGGGACAAGAA [Sewadjkare Hori]
Response line: 0.0333

Prompt line: State, in one line, measured apparent KD of MS2 coat protein of AAAAGCUUAGGAUAUACACAAAAUAAAGGAGUGAUAUCAGAACAUGAGGAUCACCCAUGUAGAAGGAAGAAAUA [Ceerle]
Response line: 0.058
